Taken from patent US5648214.

# SYSTEM UNDER TEST: Substance P (SP)
# Sequence: RPKPQQFFGLM
# CONDITION SET: equilibrium dialysis rough estimate at 20 uM RNA, fraction bound 0.017
READOUT: Kd (mM)
Answer with a number only, understood to be in mM.

Request the reported Kd associated with GGGAGCUCAGAAUAAACGCUCAANNNNNNNNNNNNNNNNNNNNNNNNNNNNNNNNNNNNNNNNNNNNNNNNNNNNNNNNNNNNUUCGACAUGAGGCCCGGAUCCGGC [unselected 60N RNA pool]
1.2
